Test system: Tel-cKit/N822K-BaF3 cells (KIT N822K)
Test: Cell proliferation, CCK-8, Tel-cKit/N822K-BaF3
Assay type: cell-based
Conditions: Mus musculus, 72 hours
Could you please mark Fulfilled for values of GI50 below 400 nM and Not fulfilled for values at or above it?

Ask: Is GI50 of `Cc1cn(-c2cc(NC(=O)c3ccc(C)c(Nc4nccc(-c5cccnc5)n4)c3)cc(C(F)(F)F)c2)cn1` strictly below 400 nM?
Reply: Fulfilled

Ask: Is GI50 of `C=CC(=O)N1CCC(Oc2cc(NC(=O)c3ccc(CN4CCN(C)CC4)c(C(F)(F)F)c3)ccc2C)CC1` strictly below 400 nM?
Reply: Fulfilled

Ask: Is GI50 of `Cc1ccc(NC(=O)c2ccc(CN3CCN(C)CC3)c(C(F)(F)F)c2)cc1OC1CCN(C(=O)c2ccncc2)CC1` strictly below 400 nM?
Reply: Fulfilled

Ask: Is GI50 of `Cc1ccc(NC(=O)c2cccc(C(F)(F)F)c2)cc1OC1CCN(C(=O)c2ccncc2)CC1` strictly below 400 nM?
Reply: Not fulfilled

Ask: Is GI50 of `Cc1ccc(NC(=O)c2ccc(CN3CCN(C)CC3)c(C(F)(F)F)c2)cc1OC1CCN(C(=O)c2cccnc2)CC1` strictly below 400 nM?
Reply: Fulfilled

Ask: Is GI50 of `Cc1ccc(NC(=O)c2ccc(CN3CCN(C)CC3)cc2)cc1Nc1nccc(-c2cccnc2)n1` strictly below 400 nM?
Reply: Not fulfilled

* * *

System: Tel-RET-BaF3 cells (RET WT)
Experiment: Cell proliferation, CCK-8, Tel-RET-BaF3
Type: cell-based
Conditions: Mus musculus, 72 hours
Could you please mark Y for values of GI50 below 600 nM and N for values at or above it?

Ask: Is GI50 of `Cc1ccc(NC(=O)c2ccc(CN3CCN(C)CC3)c(C(F)(F)F)c2)cc1OC1CCN(C(=O)c2cccnc2)CC1` strictly below 600 nM?
Reply: Y

Ask: Is GI50 of `Cc1ccc(NC(=O)c2ccc(CN3CCN(C)CC3)c(C(F)(F)F)c2)cc1OC1CCN(C(=O)c2ccncc2)CC1` strictly below 600 nM?
Reply: Y

Ask: Is GI50 of `Cc1ccc(NC(=O)c2ccc(CN3CCN(C)CC3)cc2)cc1Nc1nccc(-c2cccnc2)n1` strictly below 600 nM?
Reply: N

Ask: Is GI50 of `C=CC(=O)N1CCC(Oc2cc(NC(=O)c3ccc(CN4CCN(C)CC4)c(C(F)(F)F)c3)ccc2C)CC1` strictly below 600 nM?
Reply: Y

Ask: Is GI50 of `Cc1cn(-c2cc(NC(=O)c3ccc(C)c(Nc4nccc(-c5cccnc5)n4)c3)cc(C(F)(F)F)c2)cn1` strictly below 600 nM?
Reply: N

* * *

Tested on: Tel-cKit/V559D/V654A-BaF3 cells (KIT V559D/V654A)
Assay: Cell proliferation, CCK-8, Tel-cKit/V559D/V654A-BaF3
Type: cell-based
Details: Mus musculus, 72 hours
Procedure: […] The cells were incubated for 72 hours, and then the number of viable cells was quantified with a microplate reader by using CCK-8 Cell Viability Assay Kit (purchased from Bestbio Company, Shanghai, China) (CCK-8 can be reduced by dehydrogenase in living cells to a highly water-soluble yellow formazan product, and the amount of formazan produced is proportional to the number of living cells).
quantity_name: GI50 (nM)
Give just the numeric value; nM need not be written.

Ask: Record request: GI50 value, item `Cc1ccc(NC(=O)c2ccc(CN3CCN(C)CC3)c(C(F)(F)F)c2)cc1OC1CCN(C(=O)c2cccnc2)CC1`
Reply: 2450

Ask: Record request: GI50 value, item `Cc1ccc(NC(=O)c2ccc(CN3CCN(C)CC3)cc2)cc1Nc1nccc(-c2cccnc2)n1`
Reply: 3000

Ask: Record request: GI50 value, item `Cc1cn(-c2cc(NC(=O)c3ccc(C)c(Nc4nccc(-c5cccnc5)n4)c3)cc(C(F)(F)F)c2)cn1`
Reply: 648

Ask: Record request: GI50 value, item `Cc1ccc(NC(=O)c2cccc(C(F)(F)F)c2)cc1OC1CCN(C(=O)c2ccncc2)CC1`
Reply: 1050
